Data origin: PubChem BioAssay (NCI)

A collection of compounds and their measured TGI
- Tested on: SNB-19 CNS
- PROTOCOL_DETAILS: NCI tumour cell line growth inhibition, 48 h

Examples with their reported TGI follow.
[
  {
    "COMPOUND": "O=C1c2cn[nH]c2N=C(Nc2ccccc2)C1N=Cc1ccc([N+](=O)[O-])cc1 (stereo not given)",
    "TGI": "> 10 µM"
  },
  {
    "COMPOUND": "CO/N=C(/C(=O)Nc1c[n+](CC(=O)[O-])cs1)c1csc(N)n1",
    "TGI": "> 100 µM"
  }
]

I am curious: what TGI value has been reported for "CN=C1CN=C(OP(=O)(N2CCOCC2)N2CCOCC2)c2cc(Cl)ccc2N1" ?
> 100 µM

I am curious: what TGI value has been reported for CC[C@]1(Cc2ccc(OC)c(OC)c2)C2CC(C(=O)OC)ON2O[C@H](OCc2ccccc2)[C@@H]1OC(C)=O (stereo not given in full) ?
> 100 µM

I am curious: what TGI value has been reported for "CCOC(=O)CNC(=O)OCc1ccccc1" ?
> 100 µM

I am curious: what TGI value has been reported for "COc1cc2c(/C=C3/C(=O)Nc4ccc(O)cc43)c(Cl)n(Cc3cc(OC)c(OC)c(OC)c3)c2cc1C" ?
> 100 µM

I am curious: what TGI value has been reported for "O=C(O)c1ccccc1/C=C1/Cc2ccc3c(c2C1=O)CCC3" ?
> 100 µM
